Test system: Bacillus subtilis
assayProcedure: Inhibition of DHPS in Bacillus subtilis assessed as antibacterial activity by measuring inhibition zone at 5 mg/mL incubated for 24 hrs by disk diffusion method
propertyLabel: inhibition zone (IZ)

# input Endpoint output: inhibition zone (IZ) of CC1(C)S[C@@H]2[C@H](NC(=O)[C@H](N)c3ccccc3)C(=O)N2[C@H]1C(=O)O . Value?
# output 32.4 mm

# input Can you share its inhibition zone (IZ)? I mean this compound: CC(=O)OC[C@H]1O[C@@H](S/C(Nc2ccccc2)=C(\C#N)C(=O)Nc2ccc(S(=O)(=O)Nc3onc(C)c3C)cc2)[C@H](OC(C)=O)[C@@H](OC(C)=O)[C@@H]1OC(C)=O
# output 12.4 mm

# input Return reported inhibition zone (IZ); argument: C=CCN/C(S)=C(/C#N)C(=O)Nc1ccc(S(=O)(=O)Nc2onc(C)c2C)cc1
# output 23.8 mm

###

Test system: Geotrichum candidum
assayProcedure: Inhibition of DHPS in Geotrichum candidum assessed as antifungal activity by measuring inhibition of fungal growth incubated for 48 hrs by microbroth dilution method
Please respond with reported MIC for every item in the list.
Please answer using the number first and the unit second.

# input For the compound C=CCN/C(SCC)=C(/C#N)C(=O)Nc1ccc(S(=O)(=O)Nc2onc(C)c2C)cc1 , what MIC is on record?
# output 1.95 mg/L

# input Can you look up the measured MIC of CCN/C(S[C@@H]1O[C@H](COC(C)=O)[C@H](OC(C)=O)[C@H](OC(C)=O)[C@H]1OC(C)=O)=C(/C#N)C(=O)Nc1ccc(S(=O)(=O)Nc2onc(C)c2C)cc1 for me?
# output 31.2 mg/L

# input // MIC lookup, key: C[C@@H]1[C@H](O)[C@@H](C)/C=C/C=C/C=C/C=C/C=C/C=C/C=C/[C@H](O[C@@H]2O[C@H](C)[C@@H](O)[C@H](N)[C@@H]2O)C[C@@H]2O[C@](O)(C[C@@H](O)C[C@@H](O)[C@H](O)CC[C@@H](O)C[C@@H](O)CC(=O)O[C@H]1C)C[C@H](O)[C@H]2C(=O)O
# output 0.007 mg/L

# input Sample C=CCN/C(S[C@@H]1O[C@H](COC(C)=O)[C@@H](OC(C)=O)[C@H](OC(C)=O)[C@H]1OC(C)=O)=C(/C#N)C(=O)Nc1ccc(S(=O)(=O)Nc2onc(C)c2C)cc1 — what was its MIC?
# output 0.49 mg/L

# input Look at this compound and give its reported MIC. Cc1noc(NS(=O)(=O)c2ccc(NC(=O)/C(C#N)=C(/S)Nc3ccccc3)cc2)c1C
# output 31.2 mg/L

# input State the recorded MIC for this entry: C=CCN/C(S[C@@H]1O[C@H](COC(C)=O)[C@H](OC(C)=O)[C@H](OC(C)=O)[C@H]1OC(C)=O)=C(/C#N)C(=O)Nc1ccc(S(=O)(=O)Nc2onc(C)c2C)cc1
# output 3.9 mg/L

# input Report MIC for CCS/C(NC)=C(\C#N)C(=O)Nc1ccc(S(=O)(=O)Nc2onc(C)c2C)cc1 please.
# output 7.81 mg/L

# input Request the reported MIC associated with C=CCN/C(S)=C(/C#N)C(=O)Nc1ccc(S(=O)(=O)Nc2onc(C)c2C)cc1
# output 0.24 mg/L

# input Fill in the blank: the reported MIC of C=CCN/C(SC)=C(/C#N)C(=O)Nc1ccc(S(=O)(=O)Nc2onc(C)c2C)cc1 is ____.
# output 15.6 mg/L

# input Please give the measured MIC for this compound: CCN/C(S[C@@H]1O[C@H](COC(C)=O)[C@@H](OC(C)=O)[C@H](OC(C)=O)[C@H]1OC(C)=O)=C(/C#N)C(=O)Nc1ccc(S(=O)(=O)Nc2onc(C)c2C)cc1
# output 0.98 mg/L

# input Recorded MIC of CN/C(S[C@@H]1O[C@H](COC(C)=O)[C@H](OC(C)=O)[C@H](OC(C)=O)[C@H]1OC(C)=O)=C(/C#N)C(=O)Nc1ccc(S(=O)(=O)Nc2onc(C)c2C)cc1 , please.
# output 62.5 mg/L

# input Please report the recorded MIC for CCN/C(SCC)=C(/C#N)C(=O)Nc1ccc(S(=O)(=O)Nc2onc(C)c2C)cc1 .
# output 3.9 mg/L

# input GET /values?readout=MIC&item= CN/C(S[C@@H]1O[C@H](COC(C)=O)[C@@H](OC(C)=O)[C@H](OC(C)=O)[C@H]1OC(C)=O)=C(/C#N)C(=O)Nc1ccc(S(=O)(=O)Nc2onc(C)c2C)cc1
# output 1.95 mg/L

# input Could you tell me which MIC is on file for CCN/C(S)=C(/C#N)C(=O)Nc1ccc(S(=O)(=O)Nc2onc(C)c2C)cc1 ?
# output 15.6 mg/L

# input Which measured MIC value corresponds to CN/C(S)=C(/C#N)C(=O)Nc1ccc(S(=O)(=O)Nc2onc(C)c2C)cc1 ?
# output 3.9 mg/L

# input What value of MIC has been reported for the following compound? Cc1noc(NS(=O)(=O)c2ccc(N)cc2)c1C
# output 15.6 mg/L

# input Which MIC reading was recorded for the compound Cc1noc(NS(=O)(=O)c2ccc(NC(=O)/C(C#N)=C(/S)NC34CC5CC(CC(C5)C3)C4)cc2)c1C ?
# output 125 mg/L

###

Test system: Klebsiella pneumoniae
assayProcedure: Inhibition of DHPS in Klebsiella pneumoniae assessed as antibacterial activity by measuring inhibition zone at 5 mg/mL incubated for 24 hrs by disk diffusion method
The source made the active and inactive calls. No cut-off for these calls is given here.
propertyLabel: inhibition zone (IZ)

1. CN/C(SC)=C(/C#N)C(=O)Nc1ccc(S(=O)(=O)Nc2onc(C)c2C)cc1; inactive
2. CCS/C(NC12CC3CC(CC(C3)C1)C2)=C(\C#N)C(=O)Nc1ccc(S(=O)(=O)Nc2onc(C)c2C)cc1; inactive
3. CC(=O)OC[C@H]1O[C@@H](S/C(Nc2ccccc2)=C(\C#N)C(=O)Nc2ccc(S(=O)(=O)Nc3onc(C)c3C)cc2)[C@H](OC(C)=O)[C@@H](OC(C)=O)[C@@H]1OC(C)=O; 14.2 mm
4. CCS/C(Nc1ccccc1)=C(\C#N)C(=O)Nc1ccc(S(=O)(=O)Nc2onc(C)c2C)cc1; inactive
5. CN/C(S)=C(/C#N)C(=O)Nc1ccc(S(=O)(=O)Nc2onc(C)c2C)cc1; 22.6 mm
6. C=CCN/C(S)=C(/C#N)C(=O)Nc1ccc(S(=O)(=O)Nc2onc(C)c2C)cc1; 24.2 mm
7. Cc1noc(NS(=O)(=O)c2ccc(NC(=O)/C(C#N)=C(/S)Nc3ccccc3)cc2)c1C; inactive
8. CS/C(Nc1ccccc1)=C(\C#N)C(=O)Nc1ccc(S(=O)(=O)Nc2onc(C)c2C)cc1; inactive
9. C=CCN/C(S[C@@H]1O[C@H](COC(C)=O)[C@@H](OC(C)=O)[C@H](OC(C)=O)[C@H]1OC(C)=O)=C(/C#N)C(=O)Nc1ccc(S(=O)(=O)Nc2onc(C)c2C)cc1; 23.2 mm
10. CN/C(S[C@@H]1O[C@H](COC(C)=O)[C@H](OC(C)=O)[C@H](OC(C)=O)[C@H]1OC(C)=O)=C(/C#N)C(=O)Nc1ccc(S(=O)(=O)Nc2onc(C)c2C)cc1; 17.1 mm

# input Endpoint output: inhibition zone (IZ) of CCN/C(S)=C(/C#N)C(=O)Nc1ccc(S(=O)(=O)Nc2onc(C)c2C)cc1 . Value?
# output 16.4 mm

# input Give its inhibition zone (IZ) value. Item: CC(=O)OC[C@H]1O[C@@H](S/C(Nc2ccccc2)=C(\C#N)C(=O)Nc2ccc(S(=O)(=O)Nc3onc(C)c3C)cc2)[C@H](OC(C)=O)[C@@H](OC(C)=O)[C@H]1OC(C)=O
# output 15.8 mm

###

Please provide measured inhibition zone (IZ) for the entries that follow.
Test system: Syncephalastrum racemosum
assayProcedure: Inhibition of DHPS in Syncephalastrum racemosum assessed as antifungal activity by measuring inhibition zone at 5 mg/mL incubated for 48 hrs by disk diffusion method

# input Consider the compound C=CCN/C(S[C@@H]1O[C@H](COC(C)=O)[C@@H](OC(C)=O)[C@H](OC(C)=O)[C@H]1OC(C)=O)=C(/C#N)C(=O)Nc1ccc(S(=O)(=O)Nc2onc(C)c2C)cc1 and give its measured inhibition zone (IZ).
# output 24.4 mm

# input # inhibition zone (IZ) lookup, item C=CCN/C(SCC)=C(/C#N)C(=O)Nc1ccc(S(=O)(=O)Nc2onc(C)c2C)cc1
# output 22.4 mm

###

Would you mind telling me the reported Ratio of each entry?
System: Syncephalastrum racemosum
assayProcedure: Potency index, ratio of amphotericin B MIC to compound MIC for Syncephalastrum racemosum assessed as inhibition of DHPS-mediated fungal growth incubated for 48 hrs by microbroth dilution method

# input Provide value of Ratio for this record tested with Syncephalastrum racemosum: CN/C(S[C@@H]1O[C@H](COC(C)=O)[C@@H](OC(C)=O)[C@H](OC(C)=O)[C@H]1OC(C)=O)=C(/C#N)C(=O)Nc1ccc(S(=O)(=O)Nc2onc(C)c2C)cc1
# output 1

# input Tell me reported Ratio for CCN/C(SCC)=C(/C#N)C(=O)Nc1ccc(S(=O)(=O)Nc2onc(C)c2C)cc1 , tested with Syncephalastrum racemosum.
# output 2

# input Under Syncephalastrum racemosum: Ratio value of C=CCN/C(SCC)=C(/C#N)C(=O)Nc1ccc(S(=O)(=O)Nc2onc(C)c2C)cc1 ?
# output 3

# input Lab note: need Ratio with Syncephalastrum racemosum for entry C=CCN/C(S)=C(/C#N)C(=O)Nc1ccc(S(=O)(=O)Nc2onc(C)c2C)cc1 , please look it up.
# output 2

# input Record lookup: for Syncephalastrum racemosum, what Ratio belongs to CCS/C(NC)=C(\C#N)C(=O)Nc1ccc(S(=O)(=O)Nc2onc(C)c2C)cc1 ?
# output 2

# input Recall the recorded Ratio for C=CCN/C(S[C@@H]1O[C@H](COC(C)=O)[C@@H](OC(C)=O)[C@H](OC(C)=O)[C@H]1OC(C)=O)=C(/C#N)C(=O)Nc1ccc(S(=O)(=O)Nc2onc(C)c2C)cc1 with Syncephalastrum racemosum and state it.
# output 2
